# Tested on: CCRIS mutagenicity, Ames/micronucleus/aberration tests
# method-notes: CCRIS mutagenicity studies
# assay-setup: Test System: AMES SALMONELLA TYPHIMURIUM; Strain/Indicator: YG1021; Metabolic Activation: NONE; Method: PREINCUBATION
The source made the active and inactive calls. The rule behind the calls is not given here.

>  <chem-smiles>
Nc1nc(-c2ccc([N+](=O)[O-])cc2)nc2nc[nH]c12

>  <mutagenic call>
active; positive

$$$$
>  <chem-smiles>
Nc1ncnc2c1ncn2Cc1ccc([N+](=O)[O-])cc1

>  <mutagenic call>
active; positive

$$$$
>  <chem-smiles>
Nc1nc(-c2ccc([N+](=O)[O-])cc2)nc2c1ncn2[C@@H]1O[C@H](CO)[C@@H](O)[C@H]1O

>  <mutagenic call>
active; positive

$$$$
>  <chem-smiles>
Cc1cccn2c1nc1ccc(NO)nc12

>  <mutagenic call>
active; positive

$$$$
